- method-description: Inhibitory activity against Entamoeba histolytica pyrophosphate-dependent phosphofructokinase (PFK) (Range is 2500-3000)
- Format: functional
assay-endpoint: IC50 (µM)
# output: bare number, implied unit µM

IC50 for CCCCCCC(O)(P(=O)(O)O)P(=O)(O)O ?
3000

* * *

Provide the reported selectivity ratio of each item.
- method-description: Therapeutic index was expressed as ratio of LD50 for KB cell line to IC50 against Entamoeba histolytica
- Assay type: cell-based
- measurement-parameters: human, KB cells; read-out: TI

Need selectivity ratio, item CN(CCCc1ccccc1)CCC(O)(P(=O)(O)O)P(=O)(O)O
8.4

Now consider O=P(O)(O)C(O)(CCNCCCCc1ccccc1)P(=O)(O)O and answer again.
> 35.5

Now this one: O=P(O)(O)C(N1CCc2ccccc2C1)P(=O)(O)O
> 13

Repeat with O=P(O)(O)C(Nc1ccc(O)nc1)P(=O)(O)O
2.67

Then O=P(O)(O)C(NC1CCCCCCC1)P(=O)(O)O ?
22.9

Next record, please: CCCCCC(C)NC(P(=O)(O)O)P(=O)(O)O (stereo not drawn)
> 15.1

And CCCCCCC(CCCC)C(O)(P(=O)(O)O)P(=O)(O)O (stereo not drawn) ?
19.1

What do you get for CCCCCCc1ccc(NC(P(=O)(O)O)P(=O)(O)O)cc1 ?
2.83

Entry CCCCc1ccc(NC(P(=O)(O)O)P(=O)(O)O)cc1 please
1.62

Moving on to the next compound: CCC(C)CNC(P(=O)(O)O)P(=O)(O)O (stereo not drawn)
2.92

And for CCCCOc1ccc(NC(P(=O)(O)O)P(=O)(O)O)cc1 ?
52.7

Please give the result for O=P(O)(O)C(Nc1ccc(-c2ccccc2)cc1)P(=O)(O)O too.
56.5

Now the same for CCCCCCCCCCCCCCCC(O)(P(=O)(O)O)P(=O)(O)O
> 16.6
